Source listed as ChEMBL document CHEMBL1649175.

# ASSAY_METHOD_TEXT: Terminal half life in healthy human at 400 mg, po administered as single dose
# Format: ADME, organism-based
# APPLIED_CONDITIONS: in vivo
REPORTED_METRIC: half-life (h)
Numeric answer only, unit h assumed.

half-life measured on Cc1nnc(C(=O)NC(C)(C)c2nc(C(=O)NCc3ccc(F)cc3)c(O)c(=O)n2C)o1 [RALTEGRAVIR] = 9.3

----------
# ASSAY_METHOD_TEXT: Tmax in patient with severe renal insufficiency at 400 mg, po administered as single dose
# Format: ADME, organism-based
# APPLIED_CONDITIONS: human, in vivo
REPORTED_METRIC: Tmax (h)
Numeric answer only, unit h assumed.

Tmax measured on Cc1nnc(C(=O)NC(C)(C)c2nc(C(=O)NCc3ccc(F)cc3)c(O)c(=O)n2C)o1 [RALTEGRAVIR] = 3.5
